Test system: cleavage of Substrate M by rhBACE (recombinant human β-secretase)
ASSAY SUMMARY: Fluorometric (FRET) assay for cleavage of F-Substrate M by β-secretase
Assay type: biochemical
CONDITION SET: in vitro, rhBACE1
Where no end group is shown, it is not given here.
EXPERIMENTAL ENDPOINT: inhibition of cleavage of Substrate M by β-secretase

| SUBSTANCE | RECORDED VALUE |
| --- | --- |
| SEFCIQIHFR-NH2 [c-Sub M, SEFCIQIHFR] | inhibit cleavage |
| RLHLDLRLKA [Sub M-c] | do not inhibit cleavage |
| SEFCIHLHFR (SEFCIHLHFR-NH2) [c-Sub W] | inhibit cleavage |
| RLHFYLRLKA [Sub W-c] | do not inhibit cleavage |

====

System: cleavage of Substrate M by rhBACE (recombinant human β-secretase)
ASSAY SUMMARY: Fluorometric (FRET) assay for cleavage of F-Substrate M by β-secretase
Assay type: biochemical
CONDITION SET: tested at various concentrations (FIG. 8)
Where no end group is shown, it is not given here.
EXPERIMENTAL ENDPOINT: inhibitory activity group on Substrate M cleavage

| SUBSTANCE | RECORDED VALUE |
| --- | --- |
| FCIQIHF (FCIQIHF-NH2) [c-Sub M ΔN2C1] | most active |
| EFCIQIHF [c-Sub M ΔN1C1] | most active |
| SEFCIQI (SEFCIQI-NH2) [c-SubM ΔC3] | most active |
| SEFCIQIHFR-NH2 [c-Sub M, SEFCIQIHFR] | less activity |
| CIQIHF (CIQIHF-NH2) [c-Sub M ΔN3C1] | less activity |
